B1: HESX1 (parent)
chain: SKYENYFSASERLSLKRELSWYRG

variants of: B1; test: protein stability index of a GFP-peptide fusion (GPS, HEK-293T) (PSI 1-6); higher = more stable; conditions: c terminus: a fixed tail appended;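 further: lentivirally expressed fusions sorted by FACS into six bins by GFP to DsRed ratio, PSI derived from sequencing read proportions per bin multiplied by bin number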
Cut-off 2 on protein stability index, inclusive. At or above means criterion met; below means criterion not met.

For orientation, consider the following solved cases.
| sequence code | category label |
| --- | --- |
| SKYNNYFSASERLSLKRELSWYRG [E4N] | criterion not met |
| SKYENYFSASLRLSLKRELSWYRG [E11L] | criterion met |
| SKYENYFSASERLSLKRELSWDRG [Y22D] | criterion met |

Qu. Please indicate if the recorded protein stability index for SKYENYFSASERLSLKRELSWYSG [R23S] meets or exceeds 2.
Ans. criterion met

Qu. Exam item: decide whether the reported protein stability index for SMYENYFSASERLSLKRELSWYRG [K2M] is at least 2.
Ans. criterion not met

Qu. hey, is protein stability index for this one >= 2? SKYENYFSASERLSLKRELVWYRG [S20V]
Ans. criterion not met
